experiment: Phase 2A study (Magnolia) in women with postpartum depression: ganaxolone plasma concentrations / pharmacokinetics; settings: female, human, plasma, iv, 180 ug/kg, AUC24-48, calculated from Table 1C; dose 180 μg/kg/hr (row order of Table 1C)
measurement type: AUC

compound | observed
CC(=O)[C@H]1CC[C@H]2[C@@H]3CC[C@H]4C[C@](C)(O)CC[C@]4(C)[C@H]3CC[C@]12C [ganaxolone, 3α-hydroxy-3β-methyl-5α-pregnan-20-one] | 4820 ng·h/mL

---

assay: Phase 2A study (Magnolia) in women with postpartum depression: ganaxolone plasma concentrations / pharmacokinetics; conditions: female, human, plasma, intravenous, 190 μg/kg/hr, Mean average GNX Concentration, calculated for dose 190 μg/kg/hr; time 12 hr
measurement type: concentration at 12 h (ng/mL)

compound | measurement type | observed
CC(=O)[C@H]1CC[C@H]2[C@@H]3CC[C@H]4C[C@](C)(O)CC[C@]4(C)[C@H]3CC[C@]12C [ganaxolone, 3α-hydroxy-3β-methyl-5α-pregnan-20-one] | concentration at 12 h | 180

---

test: Phase 2A study (Magnolia) in women with postpartum depression: ganaxolone plasma concentrations / pharmacokinetics; conditions: female, human, plasma, intravenous, 180 μg/kg/hr, Mean average GNX Concentration, calculated for dose 180 μg/kg/hr; time 24 hr

molecule | u | concentration at 24 h
CC(=O)[C@H]1CC[C@H]2[C@@H]3CC[C@H]4C[C@](C)(O)CC[C@]4(C)[C@H]3CC[C@]12C [ganaxolone, 3α-hydroxy-3β-methyl-5α-pregnan-20-one] | ng/mL | 191

---

Assay: Phase 2A study (Magnolia) in women with postpartum depression: ganaxolone plasma concentrations / pharmacokinetics
Settings: female, human, plasma, iv, GNX Concentration, Cohort 1: IV 4 mg/hr for 48 h then 2 mg/hr for 12 h; individual subjects; time 48 hr
Method: Approximately 200 women with PPD 18 to 45 years of age are screened to randomize up to 100 subjects across up to 6 cohorts. Approximately 10-30 subjects are randomized into each cohort. Randomized subjects receive the investigational product (IP), ganaxolone or matching placebo in a 1:1 ratio. In Cohorts 1-5 the IP is administered intravenously over 60 hours. In Cohort 6 the dosing is initiated with a 6-hour intravenous (IV) infusion followed by oral dosing for 28 days plus 3-day taper. […]

molecule | concentration at 48 h / ng/mL
CC(=O)[C@H]1CC[C@H]2[C@@H]3CC[C@H]4C[C@](C)(O)CC[C@]4(C)[C@H]3CC[C@]12C [ganaxolone, 3α-hydroxy-3β-methyl-5α-pregnan-20-one] | 78.1

---

test: Phase 2A study (Magnolia) in women with postpartum depression: ganaxolone plasma concentrations / pharmacokinetics; details: female, human, plasma, iv, GNX Concentration, Cohort 1: IV 4 mg/hr for 48 h then 2 mg/hr for 12 h; individual subjects; time 24 hr
measurement type: concentration at 24 h (ng/mL)

molecule | measurement type | observed
CC(=O)[C@H]1CC[C@H]2[C@@H]3CC[C@H]4C[C@](C)(O)CC[C@]4(C)[C@H]3CC[C@]12C [ganaxolone, 3α-hydroxy-3β-methyl-5α-pregnan-20-one] | concentration at 24 h | 72.6

---

Experiment: Phase 2A study (Magnolia) in women with postpartum depression: ganaxolone plasma concentrations / pharmacokinetics
Conditions: female, human, plasma, iv, 200 ug/kg, AUC12-48, calculated from Table 1C; dose 200 μg/kg/hr (row order of Table 1C)
Procedure: Approximately 200 women with PPD 18 to 45 years of age are screened to randomize up to 100 subjects across up to 6 cohorts. Approximately 10-30 subjects are randomized into each cohort. Randomized subjects receive the investigational product (IP), ganaxolone or matching placebo in a 1:1 ratio. In Cohorts 1-5 the IP is administered intravenously over 60 hours. In Cohort 6 the dosing is initiated with a 6-hour intravenous (IV) infusion followed by oral dosing for 28 days plus 3-day taper. […]

molecule | AUC [ng·h/mL]
CC(=O)[C@H]1CC[C@H]2[C@@H]3CC[C@H]4C[C@](C)(O)CC[C@]4(C)[C@H]3CC[C@]12C [ganaxolone, 3α-hydroxy-3β-methyl-5α-pregnan-20-one] | 7760
